Provenance of the data: patent US20210130436A1

Reported Fold change to WT CD80 is given for each of the following binders.
# System tested: T1, CD28 endogenously expressed on Jurkat/IL2 reporter cells (human, UniProt P10747 19-220)
# T1 construct: whole, on cells; Target on Jurkat cells; also called Jurkats (CD28)
# Protocol: flow cytometry, Jurkat cells (CD28); MFI relative to WT CD80 ECD-Fc (Abcam)
State just the number; it will be interpreted in fold.

These solved cases illustrate the format of a correct answer.
{"columns": ["Binder", "Fold change to WT CD80 [fold]"],
 "data": [
  ["CD80 E35D/D46V/M47V/V68M/L85Q IgV-Fc (Fc fusion, not shown: small tags and cut ends; a dimerising Fc or GST) VIHVTKEVKEVATLSCGHNVSVEELAQTRIYWQKDKKMVLTMMSGVVNIWPEYKNRTIFDITNNLSIMILALRPSDEGTYECVVQKYEKDAFKREHLAEVTLSVKAD", 0.5],
  ["CD80 E35D/M47V/V68M/L85Q/K89N IgV-Fc (Fc fusion, not shown: small tags and cut ends; a dimerising Fc or GST) VIHVTKEVKEVATLSCGHNVSVEELAQTRIYWQKDKKMVLTMMSGDVNIWPEYKNRTIFDITNNLSIMILALRPSDEGTYECVVQKYENDAFKREHLAEVTLSVKAD", 0.3],
  ["CD80 E35D/M47V/N48K/V68M/L85Q IgV-Fc (Fc fusion, not shown: small tags and cut ends; a dimerising Fc or GST) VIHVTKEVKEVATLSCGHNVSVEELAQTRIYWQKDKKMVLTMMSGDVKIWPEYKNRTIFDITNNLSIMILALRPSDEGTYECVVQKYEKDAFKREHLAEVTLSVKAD", 0.2]
]}

Ask | Data request, read-out Fold change to WT CD80, for CD80 E35D/M47V/N48K/K89N IgV-Fc (Fc fusion, not shown: small tags and cut ends; a dimerising Fc or GST) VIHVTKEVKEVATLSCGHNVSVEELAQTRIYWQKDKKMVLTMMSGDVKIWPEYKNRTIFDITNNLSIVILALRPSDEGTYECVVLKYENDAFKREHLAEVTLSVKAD
Reply | 1

Ask | Try this binder next: CD80 N48K/V68M IgV-Fc (Fc fusion, not shown: small tags and cut ends; a dimerising Fc or GST) VIHVTKEVKEVATLSCGHNVSVEELAQTRIYWQKEKKMVLTMMSGDMKIWPEYKNRTIFDITNNLSIMILALRPSDEGTYECVVLKYEKDAFKREHLAEVTLSVKAD
Reply | 0.2
